system: HOP-62; assay: NCI tumour cell line growth inhibition, 48 h
The source made the active and inactive calls. Cut-off read from the data, not from the text of the source: active = GI50 up to about 1.1 µM and inactive = higher.
Reported GI50 values for a set of molecules

Lookup: Report GI50 for O=C1N/C(=N/N=C/C(O)C(O)C(O)CO)N/C1=C\c1ccco1 (stereo not given) tested on HOP-62.
Found: > 100 µM (inactive)

Lookup: Report GI50 for Cn1c(=O)n2c(-c3ccccc3)c(-c3ccccc3)n2c1=O tested on HOP-62.
Found: > 100 µM (inactive)

Lookup: Report GI50 for Cc1nc(=O)n2c(c1C(=O)Nc1ccc(Cl)cc1)NCCC2 tested on HOP-62.
Found: > 100 µM (inactive)

Lookup: Report GI50 for Cc1[nH]n(-c2nc(-c3ccccc3)cc(=O)[nH]2)c(=O)c1CCO tested on HOP-62.
Found: > 100 µM (inactive)

Lookup: Report GI50 for COC(=O)[C@]1(c2cc3ccccc3[nH]2)CC2CN(CC(=O)N(C)OC)C1C1OC(C)(C)OC21 (stereo not given in full) tested on HOP-62.
Found: 83.9 µM (inactive)

Lookup: Report GI50 for COC(=O)c1ccc(C)cc1/C=C1\Cc2ccc(C)cc2C1=O tested on HOP-62.
Found: 15.5 µM (inactive)

Lookup: Report GI50 for Cl[Si]1(Cl)Oc2ccccc2O[Si](Cl)(Cl)Oc2ccccc2O1 tested on HOP-62.
Found: 26.2 µM (inactive)

Lookup: Report GI50 for CC1OC(O)CC(N(C)C)C1O.CC1OC(O)CCC1O.CCC1CC(O)c2c(O)c3c(c(O)c2C1O)C(=O)c1cccc(O)c1C3=O (stereo not given) tested on HOP-62.
Found: 0.034 µM (active)

Lookup: Report GI50 for COc1ccc(Nc2nc3ccc(C(F)(F)F)cc3nc2C(=O)O)cc1OC tested on HOP-62.
Found: 25.2 µM (inactive)

Lookup: Report GI50 for O=C1NN=C(c2c[nH]c3ccccc23)CC1NCc1ccccc1 (stereo not given) tested on HOP-62.
Found: > 100 µM (inactive)

====

test system: EKVX; assay: NCI tumour cell line growth inhibition, 48 h
The source made the active and inactive calls. No stated cut-off is given here; in the data, active = GI50 up to about 1.1 µM and inactive = higher.
Reported GI50 values for a set of compounds

Lookup: Report GI50 for CCCCCCCC(=O)OC[n+]1cccc(-c2c(COC(=O)NC(C)C)c(COC(=O)NC(C)C)c3n2CCC3)c1 tested on EKVX.
Found: > 100 µM (inactive)

Lookup: Report GI50 for CCN(CC)CCC(=O)NC1c2ccc(Cl)cc2Oc2c(C)cccc21 (stereo not given) tested on EKVX.
Found: 13.4 µM (inactive)

Lookup: Report GI50 for Cc1cc(S(=O)(=O)Nc2nc(-c3ccccn3)n[nH]2)c(S)cc1Cl tested on EKVX.
Found: 16.1 µM (inactive)

Lookup: Report GI50 for O=C(O)c1cscc1Cc1cccs1 tested on EKVX.
Found: > 100 µM (inactive)

Lookup: Report GI50 for COc1cc(OC)c(/C=N/N=C(\N)NO)c(OC)c1 tested on EKVX.
Found: 35.4 µM (inactive)

Lookup: Report GI50 for CC1OC(OC2C(O[C@H]3CC[C@@]4(C)C(=CC[C@H]5[C@@H]6C[C@@H]7O[C@]8(CC[C@@H](CO)CO8)[C@@H](C)[C@@H]7[C@@]6(C)CC[C@@H]54)C3)OC(CO)C(O)C2OC2OC(CO)C(O)C(O)C2O)C(O)C(O)C1O (stereo not given in full) tested on EKVX.
Found: 2.07 µM (inactive)

Lookup: Report GI50 for Cc1c(C)c2c(c(N)c1C#N)C(=O)N(NC(=S)Nc1ccccc1)C2=O tested on EKVX.
Found: > 100 µM (inactive)

Lookup: Report GI50 for O=C1CCCCc2cccc(O)c21 tested on EKVX.
Found: > 100 µM (inactive)

Lookup: Report GI50 for CC1=C(O)C(=O)[C@@H]2O[C@@H]2C1=O tested on EKVX.
Found: 14.7 µM (inactive)

Lookup: Report GI50 for Cc1ccc(CCCCCOc2ccc(C3=NCCO3)cc2)s1 tested on EKVX.
Found: > 100 µM (inactive)

====

test system: NCI-H460; experiment: NCI tumour cell line growth inhibition, 48 h
Calls of active or inactive are those of the source. Rule as the data show it: active = GI50 up to about 1.1 µM and inactive = higher.
Would you mind answering with one of these outcomes? active, inactive

Worked examples follow.
* Oc1ccc(SCc2cc(O)ccc2O)cc1 | inactive
* CCOC(=O)[C@@H]1ON2O[C@@H](OC3CCCCC3c3ccccc3)C[C@H]3OC(=O)[C@@H]1C32 (stereo not given in full) | inactive
* COc1cc2c(c(OC)c1OC)-c1ccc(SC)c(=O)cc1[C@@H](NC(=O)c1ccc(C#N)cc1)CC2 | active
* OCCCNCc1ccncc1 | inactive
* Cc1nc(C(N)=S)sc1C(=O)C/C(=N/N)C(=O)Nc1cccc(Cl)c1C | inactive

Attention now shifts to the item below.
Lookup: Name the outcome recorded for Cc1c(C)c2c(c(N)c1C#N)C(=O)N(NC(=S)Nc1ccccc1)C2=O in the assay.
Found: inactive

====

Dear all, this message contains GI50 results, target or system HCT-15.
API: value field is a number in µM; no unit string.

Some compounds with known GI50 results, for comparison:
• COC1OC2COC(c3ccccc3)OC2C(O)C1OC(=S)c1ccccc1 (configuration not stated) = 28.4
• CC[C@H](CO)Nc1nc(NCc2ccccc2)c2ncn(C(C)C)c2n1 = 19.3
• CCN(CC)CCC(=O)NC1c2ccc(Cl)cc2Oc2c(C)cccc21 (configuration not stated) = 18.7
• Cc1cc(OCc2nn(CN3CCN(C)CC3)c(=S)n2/N=C/c2ccc(-c3ccc(Cl)cc3Cl)o2)ccc1Cl = 28.5
• Brc1ccc(/N=N/N2CCCCC2)cc1 = 27.5
• COC(=O)/C([Se]c1c(C)cc(C)cc1C)=C(/[Se]c1c(C)cc(C)cc1C)C(=O)OC = 81.3

Lookup: Entry CCC12C=CCN3CC[C@]4(C(=C(C(=O)OC)[C@@H]1Nc1ncnc5c1ncn5C1OC(COC(C)=O)C(OC(C)=O)C1OC(C)=O)Nc1ccccc14)C32 (some centres not stated) has what GI50?
Found: 3.04

Lookup: Entry CCCCCCCCCOC(=S)NCCCCC has what GI50?
Found: 23.9

Lookup: Entry Clc1ccc(C(c2ccc(Cl)cc2)N2CCNCC2)cc1 has what GI50?
Found: 2.58

Lookup: Entry CC(=O)OC(C)c1cc2c(s1)C(=O)c1sccc1C2=O (configuration not stated) has what GI50?
Found: 0.902

Lookup: Entry CC(C)CCC[C@@H](C)[C@H]1CC[C@H]2[C@@H]3CC=C4CC(OCCCCN(O)CCCSC5OC(CO)C(O)C(O)C5O)CC[C@]4(C)[C@H]3CC[C@]12C (some centres not stated) has what GI50?
Found: 43.4

Lookup: Entry C=C1CC2(C[C@@H](c3ccccc3)O[C@@H](c3ccccc3)C2)OC1=O (some centres not stated) has what GI50?
Found: 2.54

Lookup: Entry COc1cc(OC)c2c(c1)C(=O)C(CC1(C)OCCCO1)=CC2=O has what GI50?
Found: 3.92

Lookup: Entry CCN1CCC(O)(/C=C/c2ccc(Cl)cc2)C(C(=O)/C=C/c2ccc(Cl)cc2)C1 (configuration not stated) has what GI50?
Found: 21.7

Lookup: Entry CCCCCCCN(CCCCCCC)CC(O)c1cc2ccccc2c2cc(Br)ccc12 (configuration not stated) has what GI50?
Found: 7.53

Lookup: Entry CC1OC(OC2C(O[C@H]3CC[C@@]4(C)C(=CC[C@H]5[C@@H]6C[C@@H]7O[C@]8(CC[C@@H](CO)CO8)[C@@H](C)[C@@H]7[C@@]6(C)CC[C@@H]54)C3)OC(CO)C(O)C2OC2OC(CO)C(O)C(O)C2O)C(O)C(O)C1O (some centres not stated) has what GI50?
Found: 1.91

Lookup: Entry COc1ccc(C(SCCO)(c2ccc(OC)cc2)c2ccc(OC)cc2)cc1 has what GI50?
Found: 11.4

Lookup: Entry O=S(=O)(Nc1nc2ccccc2nc1Nc1ccc2ccccc2c1)c1ccccc1 has what GI50?
Found: 11.1

Lookup: Entry N/C(=N\Nc1cccc(Cl)c1)c1cccnc1 has what GI50?
Found: 39.6

Lookup: Entry CCCCCCCC/C=C1\CCC(CN2CCOCC2)C1=O (configuration not stated) has what GI50?
Found: 3.09

Lookup: Entry CC1=C(C(=O)Nc2ccccc2)C2(CCCCC2)C(C#N)=C(SCC(=O)Nc2ccc(Br)cc2)N1 has what GI50?
Found: 4.23

====

system: SN12C; experiment: NCI tumour cell line growth inhibition, 48 h
The source made the active and inactive calls. Rule as the data show it: active = GI50 up to about 1.1 µM and inactive = higher.
Would you mind answering with one of these outcomes? y for active, n for inactive

Worked examples follow.
* CC(C)(C)OC(=O)NCCC(N)=S | n
* CCCCCCCN(CCCCCCC)CC(O)c1cc2ccccc2c2cc(Br)ccc12 (configuration not stated) | n
* CCOC(=O)c1nc2cc(N3CCOCC3)c(F)cc2[nH]c1=O | n

Lookup: Name the outcome recorded for CCC(COC(=O)CC[C@@H](NC(=O)C(C)NC(=O)C(C)OC1C(O)C(CO)OC(OCc2ccccc2)C1NC(C)=O)C(N)=O)NC1c2ccccc2Nc2cccc([N+](=O)[O-])c21 (some centres not stated) in the assay.
Found: n

Lookup: Name the outcome recorded for N#CCCSC1SC(=C2SC3=C(SCCS3)S2)SC1SCCC#N (configuration not stated) in the assay.
Found: n

Lookup: Name the outcome recorded for CSc1nc(SC)c2c(C)cn(COCCOC(=O)c3ccccc3)c2n1 in the assay.
Found: n

Lookup: Name the outcome recorded for O=C(OC1C#CCSCC#C/C=C\1)c1ccc2c(c1)C(=O)c1ccccc1C2=O (configuration not stated) in the assay.
Found: n

Lookup: Name the outcome recorded for COc1cc2c(c(OC)c1OC)-c1ccc(SC)c(=O)cc1[C@@H](NC(=O)c1ccc(C#N)cc1)CC2 in the assay.
Found: y
